interaction score values by entry
Biological target: T1, 4H967-bN
T1 chain: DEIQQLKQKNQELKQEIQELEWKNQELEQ
Experiment: two-hybrid library CCNG1;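 note: natural log of median RNA to DNA barcode read ratio; higher means stronger binding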

[
  {
    "binder": "DEIQQLEQKNQELKQEIQELKWKIQELKQ [4H462-bN]",
    "interaction score": -0.954
  },
  {
    "binder": "DKIQQLKQENQELEQEIQELKWEIQELEQ [4H2697-bN]",
    "interaction score": -1.15
  },
  {
    "binder": "DKNQQLKQKIQELEQEIQELEWENQELEQ [4H3843-bN]",
    "interaction score": -1.23
  },
  {
    "binder": "DKNQQLEQEIQELEQKIQELEWKNQELKQ [4H3112-bN]",
    "interaction score": -1.11
  }
]

Cited source: paper PMC10397247
